The values you see were collected from BindingDB's records for doi:10.7270/Q2TX3CTT.

Entries annotated with measured EC50
# System name: Glycogen synthase kinase-3 beta (Homo sapiens, UniProt P49841)
# Sequence (P49841 whole entry): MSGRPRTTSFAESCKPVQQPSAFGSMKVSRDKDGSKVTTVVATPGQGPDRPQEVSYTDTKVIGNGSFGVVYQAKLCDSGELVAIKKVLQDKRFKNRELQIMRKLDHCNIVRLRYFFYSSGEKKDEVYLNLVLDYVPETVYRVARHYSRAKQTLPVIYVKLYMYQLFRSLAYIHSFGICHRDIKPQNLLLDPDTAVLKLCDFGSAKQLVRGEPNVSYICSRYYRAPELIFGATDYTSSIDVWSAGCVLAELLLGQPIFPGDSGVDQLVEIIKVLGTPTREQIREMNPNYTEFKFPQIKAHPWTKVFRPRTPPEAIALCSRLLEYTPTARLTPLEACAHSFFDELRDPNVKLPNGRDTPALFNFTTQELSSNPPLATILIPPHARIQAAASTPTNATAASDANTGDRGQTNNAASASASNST
# Assay protocol: concentration-response blocking of human GSK3B – biochemical, luminescence, cell-free homogeneous, retest, dose response (AID 434954)

**Query** API: value(readout=EC50, system=Glycogen synthase kinase-3 beta (Homo sapiens, UniProt P49841)) for record O=C(O)c1ccc(CN=Nc2ccc(C(F)(F)F)cn2)cc1
**Result** 20.4 µM

**Query** API: value(readout=EC50, system=Glycogen synthase kinase-3 beta (Homo sapiens, UniProt P49841)) for record COc1cccc2cc(CC(=O)c3ccc(C)cc3C)c(=O)oc12
**Result** > 300 µM

**Query** API: value(readout=EC50, system=Glycogen synthase kinase-3 beta (Homo sapiens, UniProt P49841)) for record CCCCc1cc(=O)oc2cc(C)cc(OCC(=O)O)c12
**Result** > 300 µM

* * *

Entries annotated with measured EC50
# System name: Glycogen synthase kinase-3 beta (Homo sapiens, UniProt P49841)
# Assay protocol: concentration-response blocking of human GSK3B – biochemical, luminescence, cell-free homogeneous, retest, dose response (AID 434954)

Examples from the recorded data:
> print(dat)
                                   molecule  obs.value
1  COc1cc(OC)cc(C(=O)NCC2CCCN(C(=O)c3csc(C)n3)C2)c1 (stereo not given)   > 300 µM
2          CNC(=O)NC(=O)CSc1nc2ccccc2n1CCOC   > 300 µM
3  O=C(CCS(=O)(=O)c1ccc(Br)cc1)Nc1ccc(Cl)cc1F   > 300 µM
4  COc1cccc2cc(C(=O)CS(=O)(=O)c3ccc(C(C)(C)C)cc3)c(=O)oc12   > 300 µM

**Query** API: value(readout=EC50, system=Glycogen synthase kinase-3 beta (Homo sapiens, UniProt P49841)) for record CC(=O)N1CCc2c(sc(NC(=O)CN3C(=O)CCC3=O)c2C(N)=O)C1
**Result** 2.29 µM

* * *

Entries annotated with measured EC50
# System name: Glycogen synthase kinase-3 beta (Homo sapiens, UniProt P49841)
# Assay protocol: concentration-response blocking of human GSK3B – biochemical, luminescence, cell-free homogeneous, retest, dose response (AID 434954)

> print(dat)
                                   molecule                               system.name  obs.value
1  CC(=O)Nc1c(-c2ccccc2)nc2ccc(Cl)cn12 [MLS001077169]  Glycogen synthase kinase-3 beta (Homo sapiens, UniProt P49841)   > 300 µM
2  Nc1nonc1-n1nnc(C(=O)NN=Cc2cccc(Cl)c2)c1CN1CCCCCC1 [MLS000950585]  Glycogen synthase kinase-3 beta (Homo sapiens, UniProt P49841)       4 µM
3  N#Cc1c(-c2ccc(F)cc2)nc(-c2ccccc2)[nH]c1=O  Glycogen synthase kinase-3 beta (Homo sapiens, UniProt P49841)   > 300 µM

Read the next record carefully.
**Query** Quick one: EC50 of Cc1c(O)ccc(C(=O)CN2CCN(c3ccc(F)cc3)CC2)c1O ?
**Result** > 300 µM

* * *

# System name: Glycogen synthase kinase-3 beta (Homo sapiens, UniProt P49841)
# Assay protocol: concentration-response blocking of human GSK3B – biochemical, luminescence, cell-free homogeneous, retest, dose response (AID 434954)
Quantity name: EC50

> print(dat)
                                   compound  obs.value
1              Cc1nc(NCCCn2ccnc2)c2ccccc2n1   > 300 µM
2  COc1cc(NC(=O)COC(=O)CCc2cc(OC)c(OC)c(OC)c2)cc(OC)c1   > 300 µM
3    Cc1ccc(S(=O)(=O)NNC(=O)c2cccc(O)c2)cc1   > 300 µM

**Query** Quick one: EC50 of NNC(=O)CNC(=O)c1ccc(F)cc1 ?
**Result** > 300 µM

**Query** Quick one: EC50 of COc1ccc(C(=O)N/C(=C\c2ccco2)C(=O)NCCN2CCOCC2)cc1 ?
**Result** > 300 µM

**Query** Quick one: EC50 of COC(=O)c1sc(Nc2ccccc2)nc1C ?
**Result** > 300 µM

**Query** Quick one: EC50 of CC(C)CCNc1nc(N)c([N+](=O)[O-])c(NCC2CCCO2)n1 (stereo not given) ?
**Result** 1.43 µM

**Query** Quick one: EC50 of COc1ccc(Nc2nc(-c3ccccc3)c(C(=O)Nc3cccnc3)s2)cc1 ?
**Result** > 300 µM

**Query** Quick one: EC50 of CCOC(=O)c1c(S(=O)(=O)NCC(=O)NCc2ccc(C)cc2)c(C)n(C)c1C ?
**Result** > 300 µM

**Query** Quick one: EC50 of Nc1nonc1-n1nnc(C(=O)NN=Cc2cccc(O)c2)c1CN1CCCC1 ?
**Result** 12.8 µM
